Target: cGMP-PDE V (Homo sapiens)
Construct: The cGMP-PDE and other PDE isozymes were isolated from cardiovascular tissues (heart and aorta); from tissue; host or cells: cardiovascular tissues (heart and aorta) of various animal species and man
Test: c-GMP-PDE V inhibitory activity (cyclic nucleotide hydrolysis by isolated PDE isozymes)
Format: biochemical, various animal species and man
Details: 0.1 μM; read-out: Percent Inhibition cGMP-PDE V
Parameter measured: inhibition at 0.1 µM (%)
Give the number; % is assumed, so skip it.

1) CCn1ncc2c(NCc3ccc(O)cc3)c3ccccc3nc21	63
2) CCn1ncc2c(NCc3ccccn3)c3ccccc3nc21	27
3) CCn1ncc2c(NCc3cccnc3)c3ccccc3nc21	10
4) CCn1ncc2c(NCc3ccccc3)c3ccc(O)cc3nc21	17
5) CCn1ncc2c(NCc3ccccc3)c3ccc(OC)cc3nc21 [5(e)]	14
6) CCn1ncc2c(NCc3ccncc3)c3ccccc3nc21	0

Looking for the measured inhibition at 0.1 µM of "CCn1ncc2c(NCc3ccc(OCCN4CCOCC4)cc3)c3ccccc3nc21" , can you help? 0

Given CCn1ncc2c(NC3CCc4ccccc43)c3ccccc3nc21 (centres unmarked) , state its recorded inhibition at 0.1 µM. 34
